B1: PhoQ; a variant is named by its letters at X, in order, P23837 (parent)
chain: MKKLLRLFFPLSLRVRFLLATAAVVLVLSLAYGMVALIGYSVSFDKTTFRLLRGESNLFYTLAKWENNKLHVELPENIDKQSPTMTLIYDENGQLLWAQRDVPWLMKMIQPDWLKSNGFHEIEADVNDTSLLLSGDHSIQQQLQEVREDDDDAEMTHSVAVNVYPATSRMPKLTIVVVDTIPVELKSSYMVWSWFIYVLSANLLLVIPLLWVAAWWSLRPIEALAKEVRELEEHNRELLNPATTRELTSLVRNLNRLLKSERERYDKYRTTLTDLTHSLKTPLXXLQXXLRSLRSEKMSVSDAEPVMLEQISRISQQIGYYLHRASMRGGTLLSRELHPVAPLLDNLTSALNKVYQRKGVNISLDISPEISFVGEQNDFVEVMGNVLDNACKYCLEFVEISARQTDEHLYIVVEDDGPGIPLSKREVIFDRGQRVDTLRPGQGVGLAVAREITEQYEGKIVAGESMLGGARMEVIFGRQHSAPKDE

- Variants of: B1
- assayComment: enrichment ratio after two sorts for PhoP signalling (ratio (wild type AVST 3.29)); higher = more functional
- conditionContext: with PhoP (E. coli)
The full ranking holds about 140,000 sequences; the median of “enrichment ratio after two sorts for PhoP signalling” is about 0, and the highest 2% start at about 11. This is one part of a sample in which the highest values are shown more often than they occur.
List of enrichment ratio values.

| alteration | enrichment ratio |
| --- | --- |
| VLVW | ≤ 0.25 |
| AYPL | ≤ 0.25 |
| AMTS | 13.9 |
| PGVK | ≤ 0.25 |
| AMVW | 11.8 |
| VHEE | ≤ 0.25 |
| HSGG | ≤ 0.25 |
| MTCF | 1.4 |
| YGPF | ≤ 0.25 |
| NFFL | ≤ 0.25 |
| NCDF | ≤ 0.25 |
| PWHD | ≤ 0.25 |
| AWHD | 24.7 |
| AITS | 9.53 |
| DNAG | ≤ 0.25 |
